tested on: P. gingivalis 33277; type: cell-based, Porphyromonas gingivalis; details: peptide 16 μM in TSB; mRNA relative to absence of peptides = 1 unit
Measured endpoint: Relative expression level mfa1
One number for each entry.

{"columns": ["Sequence chain", "Relative expression level mfa1"],
 "data": [
  ["ELVRGRGGPRCMSMPF (listed as Streptococcus cristatus) [P5, ArcA-derived peptide from residue 389, C-terminal domain]", 0.83],
  ["NHMFADTRNRE (listed as Streptococcus cristatus) [P2, ArcA-derived peptide from residue 177, N-terminal domain]", 0.80],
  ["IRGRETKK (listed as Streptococcus cristatus) [P1, ArcA-derived peptide from residue 97, N-terminal domain]", 0.85]
]}

Q: Would you kindly share the measured Relative expression level mfa1 for VYNREEDTRIEGGDEL (listed as Streptococcus cristatus) [P3, ArcA-derived peptide from residue 208, C-terminal domain] ?
Result: 0.82
